# run description: Half-life in 0.02 M phosphate buffer, 0.15 M NaCl, at a pH of 7.4, at 37 degree Celsius was determined
# Assay type: ADME
# assay context: pH 7.4
endpoint: half-life (min)

[I] CC1(C)S[C@@H]2[C@H](NC(=O)[C@H](N)c3ccccc3)C(=O)N2[C@H]1C(=O)OCOc1ccccc1
[II] CC1(C)S[C@@H]2[C@H](NC(=O)[C@H](N)c3ccccc3)C(=O)N2[C@H]1C(=O)OCN1C(=O)CCC1=O
Enquiry: Which of the two items, I and II , has the greater recorded half-life? Indicate your choice by writing its label.
Return: I

---

# run description: Half-life in 0.02 M phosphate buffer, 0.15 M NaCl, at a pH of 7.4, at 37 degree Celsius was determined
# Assay type: ADME
# assay context: pH 7.4
endpoint: half-life (h)

CC1(C)S[C@@H]2[C@H](NC(=O)[C@H](N)c3ccccc3)C(=O)N2[C@H]1C(=O)OCN1C(=O)CC(=C2CCCCC2)C1=O    5.13

[A] CC(C)(C)C(=O)OCOC(=O)[C@@H]1N2C(=O)[C@@H](NC(=O)C(N)c3ccccc3)[C@H]2SC1(C)C (single isomer, unassigned)
[B] CC1(C)S[C@@H]2[C@H](NC(=O)[C@H](N)c3ccccc3)C(=O)N2[C@H]1C(=O)OCN1C(=O)CCCC1=O
[C] CC1(C)S[C@@H]2[C@H](NC(=O)[C@H](N)c3ccccc3)C(=O)N2[C@H]1C(=O)OCN1C(=O)c2ccccc2C1=O
Enquiry: Arrange items by their half-life values in increasing order. Use the labels to give the ranking in the order requested.
Return: C, A, B
(C: 1.08 h, A: 2 h, B: 3 h)

[I] CC1(C)S[C@@H]2[C@H](NC(=O)[C@H](N)c3ccccc3)C(=O)N2[C@H]1C(=O)OCn1c(=O)oc2ccccc21
[II] CC1(C)S[C@@H]2[C@H](NC(=O)[C@H](N)c3ccccc3)C(=O)N2[C@H]1C(=O)OCN1C(=O)c2ccccc2S1(=O)=O
Enquiry: // max by half-life over [ I , II ] Respond with the label that goes with your answer.
Return: I
(I: 2.5 h, II: 1.08 h)

These data points were gathered from ChEMBL document CHEMBL1129815.
